system: dengue virus type 4; assay: Activity of dengue virus 4 recombinant NS3 protease expressed in Escherichia coli C41(DE3) by fluorogenic assay
Non-standard residues stand in square brackets, D forms with d. Residues, ends and D or L forms follow the SMILES beside them. Tyr(3-NO2) = N[C@@H](Cc1ccc(O)c([N+](=O)[O-])c1)C(=O)O; 2Abz = Nc1ccccc1C(=O)O
endpoint_label: kcat (s⁻¹)

| molecule | endpoint_label | result |
| --- | --- | --- |
| CSCC[C@H](NC(=O)[C@H](C)NC(=O)[C@H](C)NC(=O)[C@H](CO)NC(=O)c1ccccc1N)C(=O)N[C@@H](Cc1ccc(O)c([N+](=O)[O-])c1)C(N)=O (H-[2Abz]SAAM[Tyr(3-NO2)]-NH2) | kcat | 0.219 |

A: C[C@H](NC(=O)[C@H](CC(N)=O)NC(=O)c1ccccc1N)C(=O)N[C@@H](CS)C(=O)N[C@@H](CS)C(=O)N[C@@H](Cc1ccc(O)c([N+](=O)[O-])c1)C(N)=O (H-[2Abz]NACC[Tyr(3-NO2)]-NH2)
B: NC(=O)[C@H](Cc1ccc(O)c([N+](=O)[O-])c1)NC(=O)[C@H](CC(=O)O)NC(=O)[C@H](CS)NC(=O)[C@H](Cc1cnc[nH]1)NC(=O)[C@H](CO)NC(=O)c1ccccc1N (H-[2Abz]SHCD[Tyr(3-NO2)]-NH2)
C: C[C@H](NC(=O)CNC(=O)[C@H](C)NC(=O)[C@H](CO)NC(=O)c1ccccc1N)C(=O)N[C@@H](Cc1ccc(O)c([N+](=O)[O-])c1)C(N)=O (H-[2Abz]SAGA[Tyr(3-NO2)]-NH2)
D: NC(=O)[C@H](Cc1ccc(O)c([N+](=O)[O-])c1)NC(=O)[C@H](CC(=O)O)NC(=O)[C@H](CO)NC(=O)[C@H](Cc1c[nH]c2ccccc12)NC(=O)[C@H](Cc1cnc[nH]1)NC(=O)c1ccccc1N (H-[2Abz]HWSD[Tyr(3-NO2)]-NH2)
Reorder the items by kcat, least to greatest. Labels, requested order.
D, A, B, C
